The origin of these recorded values is the supplement of paper PMC3545927.

# measuredOn: furin, P09958
# Sequence (P09958 whole entry): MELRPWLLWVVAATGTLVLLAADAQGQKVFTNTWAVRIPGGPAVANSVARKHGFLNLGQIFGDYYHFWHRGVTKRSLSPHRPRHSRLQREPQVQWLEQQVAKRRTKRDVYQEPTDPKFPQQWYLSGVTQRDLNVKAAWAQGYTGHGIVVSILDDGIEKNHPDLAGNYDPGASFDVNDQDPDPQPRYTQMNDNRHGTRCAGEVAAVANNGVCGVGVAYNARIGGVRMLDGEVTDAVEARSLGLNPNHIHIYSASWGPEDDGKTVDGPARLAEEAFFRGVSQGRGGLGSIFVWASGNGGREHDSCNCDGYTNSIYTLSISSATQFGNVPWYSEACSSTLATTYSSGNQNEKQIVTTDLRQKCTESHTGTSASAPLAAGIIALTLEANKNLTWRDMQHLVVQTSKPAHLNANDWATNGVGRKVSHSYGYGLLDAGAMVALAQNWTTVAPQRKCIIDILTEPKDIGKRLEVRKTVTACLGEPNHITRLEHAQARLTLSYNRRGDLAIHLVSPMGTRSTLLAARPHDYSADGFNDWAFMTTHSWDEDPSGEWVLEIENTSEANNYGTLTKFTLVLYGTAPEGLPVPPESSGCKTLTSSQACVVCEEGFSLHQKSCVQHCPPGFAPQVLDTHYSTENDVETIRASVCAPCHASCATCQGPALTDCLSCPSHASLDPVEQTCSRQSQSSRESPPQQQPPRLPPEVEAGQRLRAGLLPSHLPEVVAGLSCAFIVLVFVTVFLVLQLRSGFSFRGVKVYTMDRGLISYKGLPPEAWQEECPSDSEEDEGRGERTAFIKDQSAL
# assayProcedure: furin cleavage Z-score vs untreated control; higher = more cleavage, active = 3.5 or more, inactive = 1 or less, 8 variable residues between constant flanks;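 note: purified furin at 1:10 enzyme:substrate in 50 mM HEPES pH 7.5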
# setupConditions: 15 min
This is one part of the list. The true hit rate is not given.
experimentalReadout: furin cleavage Z-score
Lab note: jot the number down without any unit.

These solved cases illustrate the format of a correct answer.
CAPTARPKRKAGNASASA [FS-913]: 4.54
CASGSRSSRSAGNASASA [FS-1409]: 1.76
CANKSRSSRSAGNASASA [FS-180]: 8.25
CAPRPISYLKAGNASASA [HC738]: 1.42

# ---- query sequence ----
Exercise: For the sequence shown here, CATEECSQHLAGNASASA [HC1678] , give the reported furin cleavage Z-score.
Key: 0.32
